The following sequences are listed with their measured protease stability score values.
# PROCEDURE_DETAILS: protease stability score; higher = more stable; yeast display proteolysis, trypsin and chymotrypsin
Keep it simple and answer with nothing but the number.

Observe how each entry below is paired with its result.
DESEHAKRVADKFRTAAKNGDPDQFTQLADPNAKIDIGDKDVSGRERLSEVVNELNKRIDHLEVKVRSVTQRGNHLVVKADVDAEHNGQEIRRKVDIVLRNNNGRVNLEMIRYR : 1.03
DSRDNRAATRLRQAHESGDPDQIRDNVDPNATIQVGDKSIHGMESWAREEHKKHRELKVEIKDFRQSASNGHVKATIDRVDNHNGRPQRTTVDIHIVFHNGKVKSIDVKTTK : -0.481

Q) GET /values?readout=protease stability score&item= DKTHAETVRKLVERGNWEELARMADKDAHVNYGNKSVHGRERVESLLKRFSSRVDHVDLKDVDVQGDHVHMRYVAVFDGRRVDVSAVIFVDNGRIKSIHYRATDEEVKRRMDELLD
A) 1.33

---

# PROCEDURE_DETAILS: protease stability score; higher = more stable; yeast display proteolysis, trypsin and chymotrypsin
Reported protease stability score values for a set of sequences
Answer with a number only.

DREEKVREALETLQKAFRTGDPRLFVEQLDPNVRIEVGDKTVHGREQASEWAKRMRDKFDHFEVKIHDMSVQGDKFSVKVSLRQDVNGTDVQRDNHYTIVFHNGRVHVQNINNK : 0.644
DRELRQNLHEFWKQQETGNPDELRKMVDPNARIVIGDKTYSGMDNAAQRMAESNQELSVDIKRLDLQASNGRVTIKLDAVKNHNGQPSRKTVTQTIRIHNGRIKHISMREDG : -0.448

Q) Fill blank: measured protease stability score of the sequence DEEKQSTRALQMLHNIATGNEREAQKLMDEDVKLQVGDKHLHGKEQVRHRIHELLRTVDHMDVKDMHYSGDHVSVTAIARVNGQNQHVELSAHVSNGTIKDIRVRYS is ____.
A) 1.25

Q) Now give it for DEEKLEKFARNFEKVVERGDEDKFRSQADPNVQAVIGDKRIHGDEHLAHWMNKLRSHIDHFRVVDMRVQGEEIHLDVKFVVDGRRVRFIIEIEVHNGHITRFTVHVTDEEKWRRREK too.
A) 0.335

Q) Item: DEDHASRQAKKFIDAMRSGDEELAKNLVDKDVTAIYGDRTVNGREQVMKMVKEFRNQADEITVDDMKVKNGRVVIHLKMDINGEQEVVIVILDIRNGRAKEISFERR
A) 1.27

Q) Same question for DQRLWERFVKDLEENDEKSWQDLVDKDAKVEVGDTSYQGREHALTAIQKWVHQVDHVEIKSYRIHGDNVQIRMEVVINGRKMQVTVQAHLHNGKMKNIHMEATDRHVVEKLRELIS please.
A) 0.039

Q) Check DEEQVREAMEIVKHGDPDKFRKQADKDVRLTIGDTEYHGREDVMTVLVSFLRTVDHLNIKSVDVRGDKAVINADFNYNGKEININIHLEFHNGRLKSVQIQATNREDQKDLKRIIK too.
A) 1.28

Q) Now try EHELERQASKFAQLLRTNDFEKLLEMFDENARIEVGDKFVQGRDRIKKKLERDKTEMNRRYEDIKFTANGNTLNIKVIFTENHNGKPKRTVQLILITFRNGRIKRVEVRDDG .
A) -0.065

Q) Repeat for the following sequence: DTESAQTFVDVLEEGDFDTLVNLMDKNARLQVGDTTFNGRENARHFFELMKDKVDHLKIDHYEIHGNHVNIDMKLNVNGKTVDVVVYVKFHNGRIQHLRIEARDPEDMRTFKENMR
A) 1.35

Q) Now consider DEKVHKIFEHYMTAVNRNNPDRAMRQVDPNAHVEVGDRQISGRENLRETVEKLNKHARINYRDFDAELHGDKVNVDLDIRMEYNGKPYSDHVIIIFRAQGDKIKHMTNDIDPDVEHHFEQ and answer again.
A) 0.081

Q) Moving on to the next sequence: DEEKVKKLLEQMVRAYVSGHAEEVKKLGKDDGELHAGDQTYHGKEQIYKVVKKFKEYGVQLQITDMKYDGDRLDVKAELHHGGTTWEFRVTVQADGGKVDRLQVDVSEEAKKTIKHG
A) 1

---

# PROCEDURE_DETAILS: protease stability score; higher = more stable; yeast display proteolysis, trypsin and chymotrypsin
EXPERIMENTAL_ENDPOINT: protease stability score

Reference set (4 entries):
DEKKQAKRLHETMDRILTQGNPHEAKHLFDKDARIDVGDKKVHGREQIAKSLAERVRQVDHIHNQVDHVEVDNGQLNMTVRFQQETNGKTHDYSAQHRVDIDGDKVKVVKVTHQ : -0.336
DDQKEIEKVLEVIKRMDTGDEKNVKEMFDPNARASVGERTYHGREDIQSFARELKERVDHVRIDSMSAHGDKATVDLRMNENGRTERYSVRVQIHNGRARHLRYTTK : -0.219
DEDAQRQVEELLKAEHEGDPKKFQELADPNVNAIYGDKRVHGRETLADQLAERVREMRVHYDSIDLRVRGNKVNVHINAKFKYNGVPIEISMTVVFVFHNGRLQRREVSIPEEVQTELTR : 0.129
EEHLESLVRNLEEAVKKGNPEEMKKNLDKNARMVYGDKRLHGMSDILTEIEKRREHMRLEHEVKSIDNQGNKAKVTARLDVNVNGHPVDVDFIIHIKVHNGHVLEIVYQLPPEAHEKLKT : -0.278

Then there is this sequence:
Q) protease stability score lookup needed for DDDLVRKLNHMVKVMQNGDPDKIVDQMDPNARLIVGDKNVHGRDEARRFMEKVNKHLRFEIKSVTLHDRPNNANADVDANFHINGRPVRLKYIIVVSVHNGRIKEVQLRLSEDQERKLEK , thanks.
A) 0.71

---

# PROCEDURE_DETAILS: protease stability score; higher = more stable; yeast display proteolysis, trypsin and chymotrypsin;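 further: log10 excess protease needed over predicted unfolded state with 0 meaning unfolded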
Consider the following sequences and their measured protease stability score readings.
The answer should be a number; do not append a unit.

These recorded examples may help you get a feel for the data.
DEKKAKEAAHRLLEAMVTGDPRKLNENADEDVQVEYGDKSYTGREKLNEWAHEFQKRVDHVRIESIHQRGDTATVKVRVEHNGETDTFVLIVEAHNGRAKRIRQETR : 1.11
DNDAMRQANTLVEILNTGDPDRFVEYVDPNVDIKIGDKSIHGREDARRWVTELKRQMHIHLSVKRVDVEGEHLNLHADQVNDENGQPDKDHVLIIMRFHNGRVKVLKQEHKS : 0.53

Q) # query: protease stability score of entry DEREAKKVVEDLKRGDWNKLMQLVDPNAKAVVGDKRVHGREQVQHMMQQFQDRIDHMEIRSVRVHNGRIEVDATFIFNGQSVRVIFHITVHNGRIQEIHVQATNEKVKHQLRKFLS
A) 1.07

---

protease stability score: recorded values
# PROCEDURE_DETAILS: protease stability score; higher = more stable; yeast display proteolysis, trypsin and chymotrypsin;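 further: log10 excess protease needed over predicted unfolded state with 0 meaning unfolded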
Output: the number by itself.

Q) # get_value(readout='protease stability score', item= DEHVEHLVHEIMDALRTNDPDRLRQLMDPNAHAQIGDKQLHGRRTMVDHWQDTLEEIRVSIDVKSFSVKNGRADMTAKVEREDNGKPDDRTADIHIEFHNGKAVRIDVKYKG )
A) 0.275

---

# PROCEDURE_DETAILS: protease stability score; higher = more stable; yeast display proteolysis, trypsin and chymotrypsin;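 further: log10 excess protease needed over predicted unfolded state with 0 meaning unfolded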
EXPERIMENTAL_ENDPOINT: protease stability score
Lab note: jot the number down without any unit.

Solved entries:
EEELAKRIRDFLHWVEKGNDDRAMELADPNARVDIGDRDIHGRESIREWVKKMQDKQRVEFDVKHVTVRGNTVVVDLVMRVEHNGQPSETKYQFEAKDNNGHLKFIKVTTIS : 1.3
DRDLNRHVKRFMDIIQNGDPDKAMEMVDPNVEFHVGDKRVHGQEELRELIKKEHDEQRKEIDDMRYDDRGSKAKINIEVRVEHNGRPNTVREDWNVEAKNGKIKRMNAKVDQ : -0.495

Next:
Q) Param item = DEHAQKRASQLVDKQNTGNPESIANYMDPNAKVQVGENRVHGREEIETLVKQKNKEARYEYNVESMSIQGDKLTMHLHAVVEINGQPLEFKVRVDFTFHNGRIRDVYYQLPEELLEELKR ; retrieve measured protease stability score.
A) 0.165

---

# PROCEDURE_DETAILS: protease stability score; higher = more stable; yeast display proteolysis, trypsin and chymotrypsin;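 further: log10 excess protease needed over predicted unfolded state with 0 meaning unfolded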
Grouping by measured protease stability score is done with the following cut points: lower band: < -0.4; central band: ≥ -0.4 and < 0.6; upper band: ≥ 0.6

Some entries whose results are on file:
DDEEQKERAEEIIKAIQTGDPQQFNRQADPNVEVKIGDTNVHGRENAARNIAERVQRADHIQVETMDVDGNNVVIDMVIQHNGRTKRFIVTLHFQNGRVKKMSIEDS : central band
DEDAAKDYETIVKQQESGDEDKVRQNVDPNAKWHIGEKKVHGRESLANEVHRVRRQMNERMEVKTVKDQGDKANVEMRVVQQHNGEPKDYTMQVDVHAHNGRLREVKATEQS : central band
DEEEEARKFVKTAQDKARQGNEDQLQNMADKDARVEVGDKVIHGRNEAVKTRREENKRYDRVHNDVQHITLRPGQITIRMRVHVEHNGQRRHREFVFVMHNNNGEWHVEFVEVK : central band
DEEDEKHIDDVLKQGDFDEMARNADKDATVRIGEKEYRGREDVVRMLEIIHKRADEVHVDSVRVTNGRLKMDVVFDVNGVQANVILVINVHNGKIKNITLKYRNEELSRKLDKILR : upper band
DKHQMHILKSIVENEQKGDEKSVSKMVDPNARFHVGDKRISGREQKDEDVQRKKDEIRVQIDKVEFNHSNGRVVVNMDMTIDRNGKPKTFKAQAHATFHNGTATSQTQTNDG : lower band
DEELMKTVHDLYSNLRQNDEHKFDELVDPNASLRVGDKRLHGREQIHDELKRQNEEIHVSRQMKEMTVHNGRADVNIRASETHNGQPDEFTIDATFELHNGRFISIDIKKRP : lower band
DEEEAQDVLQEVFKAVSRGDEDRAEQLADPNAKAEYGDKSYHGKKVIKEAVRRMSEQADHFEFKHIDHDEGRVVFDMEIEFNGQTFKVKVKAQAHNGRAQNFKFQFRSEDDLERLQS : central band
DTEDDHEFARKYVEVLESGDPKQWREMFDEDAKMRIGEKTFRGRDQIATWYERYRRQADHVEVKHVETRGEQFQFDFQVHVNGKHARYTLNIRVHNGKLVEVKFDPDQKKTMDK : upper band

Q) Hi, small favor: classify DEDQMEDLKRKWEKNDWRRFARNADPNVRVEVGDRRYHGRTDALRAMKIIEDTADRIQIDRVKSTNGKVTVDLVLVVNGNKIRARFEAVVHNGQVKHFTMKFRDKDDKRRFNEAMS by its protease stability score when you get a moment.
A) central band

Q) What about DEDITEAVRRLEKAREDGDPNKVRELLPEDARAQYGDKTYHGRDEVAKYRETEMKQMTVQMNIRSVENHNGRADIEFEVTREHNGKPTHDHNRATILAHNGKIKVIEIHSTK ?
A) lower band

Q) // same read-out, input: EKEVMDTLVKIVNEGNFEDLAKMADKDVQVRIGNKNLHGKEQLQKFMERFTRQADHIRVHRYQFSNGRFQFDFVIVVNGKRFRVTMHVEVSNGRIKKLVINVTDEDAEKVLREAYG
A) upper band
